Target: Ribosomal protein S6 kinase alpha-4 (Homo sapiens);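 further: mean inhibition of MSK2, GSK PKIS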
Conditions: at 1 µM
Can you tell me inhibition for the items I'm about to list?
Response body: numeric value in %, unit text excluded.

Looking up `CCS(=O)(=O)c1ccc(OC)c(Nc2ncc(-c3cccc(-c4ccccc4F)c3)o2)c1` , I see its inhibition listed as 1.94

Looking up `Fc1ccc(-c2ncn(C3CCNCC3)c2-c2ccnc(Oc3ccc(Oc4ccccc4)cc3)n2)cc1` , I see its inhibition listed as 5.09

Looking up `COC(=O)Nc1nc2ccc(Sc3ccc(NC(=O)Nc4cc(C(F)(F)F)ccc4F)cc3)cc2[nH]1` , I see its inhibition listed as 0.37

Looking up `COc1cc(Nc2ncc3c(C)nc(-c4cccc(Oc5ccccc5)c4)n3n2)cc(OC)c1OC` , I see its inhibition listed as 2.98

Looking up `CNC(=O)c1cncc(/C=C/c2c(C)cccc2C)c1` , I see its inhibition listed as 1.5

Looking up `Fc1ccc(-c2nc3n(c2-c2ccncc2)CCS3)cc1` , I see its inhibition listed as 5.1

Looking up `O=C(NCC1CC1)c1ccc(-c2cccc(C(=O)NC3CC3)c2)cc1` , I see its inhibition listed as 3.88

Looking up `Fc1ccc(-c2ncn(CCCN3CCOCC3)c2-c2ccncc2)cc1` , I see its inhibition listed as 0.33

Looking up `CN(C)CCOc1ccc(-c2cc(-c3ccc4c(c3)CCC4=NO)c(-c3ccncc3)o2)cc1` , I see its inhibition listed as -2.21

Looking up `O=C(Nc1n[nH]c2nc(-c3ccco3)ccc12)C1CC1` , I see its inhibition listed as 3.29

Looking up `O=C(Nc1n[nH]c2nc(-c3ccc(O)cc3)c(Br)cc12)C1CC1` , I see its inhibition listed as 6.3

Looking up `COc1cccc(-n2cnc3c(N/N=C/c4ccncc4)ncnc32)c1` , I see its inhibition listed as 3.95

Looking up `COc1ccc2ncn(-c3cc(O[C@H](C)c4ccccc4Cl)c(C(N)=O)s3)c2c1` , I see its inhibition listed as 2.99

Looking up `COc1cc(Nc2ncc(-c3ccccc3)o2)cc(OC)c1OC` , I see its inhibition listed as 0.02

Looking up `O=C1Nc2ccc(I)cc2C1=Cc1cc(Br)c(O)c(Br)c1` , I see its inhibition listed as 4.68

Looking up COc1ccc2cc(-c3c(-c4ccncc4)nc(-c4ccc([S+](C)[O-])cc4C)n3C)ccc2c1 (stereo unspecified) , I see its inhibition listed as -0.04

Looking up `NC(=O)c1cc(-c2ccc(F)cc2)cc(-c2ccncc2)c1N` , I see its inhibition listed as 2.52

Looking up `Cc1nnc(-c2ccc(C)c(-c3ccc(C(=O)NCc4ccc(Cl)cc4)cc3)c2)o1` , I see its inhibition listed as 3.61

Looking up `O=C(Nc1n[nH]c2cc(-c3cc(F)ccc3F)ccc12)C1CC1` , I see its inhibition listed as 3.08

Looking up `C#Cc1cccc(Nc2ncnc3ccc(OCCCCNCCS(C)(=O)=O)cc23)c1` , I see its inhibition listed as 3.4

Looking up `CS(=O)(=O)CCNCc1cc(-c2cc3c(Nc4ccc(OCc5cccc(F)c5)c(Cl)c4)ncnc3s2)cs1` , I see its inhibition listed as 4.94

----------
Can you tell me inhibition for the items I'm about to list?
Target: Tyrosine-protein kinase receptor UFO (Homo sapiens) (UniProt P30530);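 further: values are mean percent inhibition of AXL from the GSK PKIS screen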
Sequence (P30530 whole entry): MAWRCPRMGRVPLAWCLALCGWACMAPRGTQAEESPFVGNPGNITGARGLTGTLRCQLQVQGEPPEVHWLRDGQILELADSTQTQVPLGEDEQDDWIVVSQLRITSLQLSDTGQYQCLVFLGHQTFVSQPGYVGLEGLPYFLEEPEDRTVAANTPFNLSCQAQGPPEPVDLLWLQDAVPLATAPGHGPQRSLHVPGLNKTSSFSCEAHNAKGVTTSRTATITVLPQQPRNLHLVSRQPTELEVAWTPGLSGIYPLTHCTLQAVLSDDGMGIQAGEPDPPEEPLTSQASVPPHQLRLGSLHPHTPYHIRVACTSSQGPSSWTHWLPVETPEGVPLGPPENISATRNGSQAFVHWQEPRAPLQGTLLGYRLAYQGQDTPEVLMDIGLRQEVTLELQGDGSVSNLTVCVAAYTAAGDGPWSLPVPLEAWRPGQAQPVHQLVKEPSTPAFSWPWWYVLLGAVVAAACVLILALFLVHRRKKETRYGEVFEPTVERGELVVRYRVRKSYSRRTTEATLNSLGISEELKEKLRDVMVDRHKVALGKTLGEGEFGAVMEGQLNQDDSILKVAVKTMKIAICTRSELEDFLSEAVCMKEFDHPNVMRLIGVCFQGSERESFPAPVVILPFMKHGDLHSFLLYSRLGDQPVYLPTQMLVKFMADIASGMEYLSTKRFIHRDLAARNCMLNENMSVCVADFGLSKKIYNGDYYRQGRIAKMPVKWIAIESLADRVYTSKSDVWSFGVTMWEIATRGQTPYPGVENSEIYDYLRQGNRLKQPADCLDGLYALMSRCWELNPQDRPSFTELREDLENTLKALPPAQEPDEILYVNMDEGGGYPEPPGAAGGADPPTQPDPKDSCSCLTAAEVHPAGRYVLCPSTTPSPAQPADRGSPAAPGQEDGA
Details: at 0.1 µM
Response body: numeric value in %, unit text excluded.

Looking up `Fc1ccc(-c2c(-c3ccncc3)nc3n2CCS3)cc1` , I see its inhibition listed as -4.74

Looking up `CN(C)CCOc1ccc(-c2cc(-c3ccc4c(c3)CCC4=NO)c(-c3ccncc3)o2)cc1` , I see its inhibition listed as 1.32

Looking up `CCS(=O)(=O)c1ccc(OC)c(Nc2ncc(-c3ccccc3Cl)o2)c1` , I see its inhibition listed as -0.86

Looking up `COc1cc2ncn(-c3cc(OCc4cccs4)c(C(N)=O)s3)c2cc1OC` , I see its inhibition listed as 3.68

Looking up `O=C(Nc1n[nH]c2cc(-c3cc(F)ccc3F)ccc12)C1CC1` , I see its inhibition listed as -7.5

Looking up `CCS(=O)(=O)c1ccc(OC)c(Nc2ncc(-c3cccc(-c4ccccc4F)c3)o2)c1` , I see its inhibition listed as 0.9

Looking up `CN1CCN(CCCNc2nc3ccc(Oc4ccc(NC(=O)Nc5cc(C(F)(F)F)ccc5F)cc4)cc3[nH]2)CC1` , I see its inhibition listed as 0.85

Looking up `NS(=O)(=O)c1ccc(Nc2cc(-c3ccc(O)c(F)c3)n[nH]2)cc1` , I see its inhibition listed as 1.86

Looking up `O=C(Nc1n[nH]c2cc(-c3ccccc3)ccc12)C1CC1` , I see its inhibition listed as -8.55

Looking up `COc1ccc2ncn(-c3cc(O[C@H](C)c4ccccc4Cl)c(C(N)=O)s3)c2c1` , I see its inhibition listed as -9.61

Looking up `COc1cc2ncn(-c3cc(OCc4ccccc4C(F)(F)F)c(C(C)=O)s3)c2cc1OC` , I see its inhibition listed as -3.01

Looking up `O=C1NC(=O)C(c2cccc(Cl)c2)=C1Nc1ccc(Cl)c(C(=O)O)c1` , I see its inhibition listed as -4.48

Looking up `Clc1ccc(CNc2nccc(-c3cnn4ncccc34)n2)cc1` , I see its inhibition listed as 1.22

Looking up Nc1nccc(-c2c(-c3ccc(F)cc3)ncn2C2CCC(O)CC2)n1 (configuration not stated) , I see its inhibition listed as 2.47

Looking up `N#Cc1ccc(Oc2nccc(-c3c(-c4ccc(F)cc4)ncn3C3CCNCC3)n2)cc1` , I see its inhibition listed as -5.46

Looking up `COc1ccc(-c2ccc3c(NC(=O)C4CC4)n[nH]c3n2)cc1` , I see its inhibition listed as -1.95

Looking up `C[C@@H](Oc1cc(-n2cnc3ccc(OC4CCN(C)CC4)cc32)sc1C(N)=O)c1ccccc1Cl` , I see its inhibition listed as -8.27
